# Assayed target: T1, HPV38 E7 protein (beta-papillomavirus), recombinant (His-TEV-E7 fusion from E. coli) (Human Papilloma Virus type 38 (HPV38), UniProt Q80908 1-100)
# T1 construct: mature; also called HPVE7 38; VE7_HPV38; not shown: N-terminal 6x Histidine tag and TEV cleavage site of the vector
# T1 sequence: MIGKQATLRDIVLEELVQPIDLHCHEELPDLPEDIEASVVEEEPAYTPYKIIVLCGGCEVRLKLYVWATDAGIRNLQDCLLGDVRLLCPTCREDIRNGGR
# Test summary: ELISA and dot-blot

{"Binder": "ACAB167 (antibody, V domains shown, the printed entries run on into the first residues of the constant domains; also called HPV16E7 IgG2b antibody ACAB167) VH: EVQLEESGGGLVQPKGSLKLSCTASGFPFNTYAMNWVRQAPGKGLEWVARIRTKSNNYATYYADSVKDRFTISRDDSQNMLYLQMNNLKTEDTAMYYCVRLYGYYFDYWGQGTTLTVSS VL: DIVMTQSPEIMSASPGEKVTMTCSASSSVSFMFWYQQKSGTSPKIWIYDTSKLASGVPARFSGSGSGTSYSLTVSSMEAEDAATYYCQQWNSNPPTFGVGTKLELKR", "binding result": "no binding"}
{"Binder": "ACAB164 (antibody, V domains shown, the printed entries run on into the first residues of the constant domains; also called HPV16E7 IgG2a antibody ACAB164) VH: EVQLQQSGLALVQPGASVKISCRTSGYTFTEYTLHWVKQSHGKSLEWIGGINPNNGSPKYNQKFKGKATLTVDKSSSTAYMELRSLTSEDSAVYYCARLDINSFFDYWGQGTTLTVSS VL: DVVMTQSPLSLPVSLGDQASISCRSSQSLVHSNGNTYLQWYLQKPGQSPKLLIYKLSNRFSGVPDRFSGSGSGTDFTLKISRVEAEDLGVYSCSQTTHVPPTFGGGTKLEIKR", "binding result": "no binding"}
